Tested on: ZEAMX (Corn, Field)
assayProtocol: Postemergence herbicidal evaluation
Format: in vivo, Zea mays
setupConditions: postemergence, rate 0.0625 kg/ha
resultType: ZEAMX herbicidal rating

Prompt line: Reported ZEAMX herbicidal rating, molecule CCOC(=O)CN1C(=O)C(CC(=O)O)S/C1=N/c1cc(-n2c(=O)cc(C(F)(F)F)n(C)c2=O)c(F)cc1Cl (stereo not shown) [Compound 16] : ____
Response line: 8.4

Prompt line: # repeat for CC(C)OC(=O)CC1SC(=Nc2cc(-n3c(=O)cc(C(F)(F)F)n(C)c3=O)c(F)cc2Cl)N(C)C1=O (stereo not shown) [Compound 89]
Response line: 8.5

Prompt line: Thanks! And CCOC(=O)CN1C(=O)CN(C)C1=Nc1cc(-n2c(=O)cc(C(F)(F)F)n(C)c2=O)c(F)cc1Cl [Compound 25] ?
Response line: 7.0

Prompt line: Similarly, C=CCN1C(=O)C(CC(=O)OCCF)SC1=Nc1cc(-n2c(=O)cc(C(F)(F)F)n(C)c2=O)c(F)cc1Cl (stereo not shown) [Compound 86] ?
Response line: 8.5
